Data provenance is the supplement of paper PMC10126150.

- System: ATP;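 also: ATP exposure 15 min at 22 °C before imaging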
- test.protocol: switch fluorescence ratio, 500 uM ATP over buffer (Cy3 cluster intensity, sum of 5 cycles each) (fold (ratio)); higher = stronger signal-on switching upon ATP binding; sequences stand for … in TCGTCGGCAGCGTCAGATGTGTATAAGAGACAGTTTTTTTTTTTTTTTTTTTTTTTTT…TC
- condition.summary: aptamer strand: ATP DNA aptamer (quencher-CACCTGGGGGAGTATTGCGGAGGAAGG + anchor), 100 nM annealed; ATP concentration: 500 uM
Kindly supply the reported switch fluorescence ratio values for the records listed here.
One number for each entry.

// known answers, use as guide
sequence | switch fluorescence ratio
TAACGGCATG | 1.03
GTGGATTTTT | 0.991
ATTACGGTCT | 1.04
GAAATACGGG | 1.09

Below are 4 sequences. Give each one its switch fluorescence ratio.
1. AAAGACGTTT
2. TCTTGGAACG
3. TTTCAACGGT
4. CAGAACGCTG

result:
1
0.998
1.01
1.35

Below are 4 sequences. Give each one its switch fluorescence ratio.
1. TGAGATATTG
2. GGGGGTGAGG
3. ACGCTTGTGC
4. CGATTCGAGT

result:
1. 0.997
2. 1.01
3. 1.08
4. 0.967

Below are 3 sequences. Give each one its switch fluorescence ratio.
1. AAGTGAAACA
2. TGGGTTATGT
3. GCGGCTTCGG

result:
1. 1.03
2. 0.992
3. 1.04

====

- Test system: ATP;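 also: ATP exposure 15 min at 22 °C before imaging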
- test.protocol: switch fluorescence ratio, 500 uM ATP over buffer (Cy3 cluster intensity, sum of 5 cycles each) (fold (ratio)); higher = stronger signal-on switching upon ATP binding; sequences stand for … in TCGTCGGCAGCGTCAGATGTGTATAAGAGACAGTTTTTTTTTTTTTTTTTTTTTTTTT…TC
- condition.summary: aptamer strand: ATP DNA aptamer (quencher-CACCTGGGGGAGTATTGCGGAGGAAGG + anchor), 100 nM annealed; ATP concentration: 500 uM
endpoint.name: switch fluorescence ratio
One number for each entry.

// known answers, use as guide
sequence | recorded.result
GCATTAGGGC | 1.07
GGTGGGGCCC | 0.983
ATCGGTGTTG | 1.02
CTGTTTTACT | 1.03
TTATGCTGTT | 1
ACGATGAGGA | 0.982
GCTCAAGGAG | 0.995
TCGAATGGCT | 1
GAAGAGGAGG | 1.04
TGACAAAGA | 1

Here is another sequence to look at.
query: Specify reported switch fluorescence ratio for the sequence shown: TTATGTTTG
result: 1.01

====

Kindly supply the reported switch fluorescence ratio values for the records listed here.
- System: ATP;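 also: ATP exposure 15 min at 22 °C before imaging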
- test.protocol: switch fluorescence ratio, 500 uM ATP over buffer (Cy3 cluster intensity, sum of 5 cycles each) (fold (ratio)); higher = stronger signal-on switching upon ATP binding; sequences stand for … in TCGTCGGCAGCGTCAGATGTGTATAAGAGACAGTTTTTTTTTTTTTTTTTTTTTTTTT…TC
- condition.summary: aptamer strand: ATP DNA aptamer (quencher-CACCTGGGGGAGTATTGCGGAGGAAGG + anchor), 100 nM annealed; ATP concentration: 500 uM
Numbers only.

// known answers, use as guide
sequence | recorded.result
GAGCTGTAAC | 1.02
GAATAGGTTA | 0.983
TCCTAGTTGA | 1.02
CATTATTGGG | 0.985
TAGATATTTA | 1.01

Below are 5 sequences. Give each one its switch fluorescence ratio.
1. ATGTTGGTTT
2. TTTATACGTT
3. GGGGGAGTTA
4. TTAAATGGCA
5. GCGGGGGGGC

result:
1: 0.996; 2: 1.01; 3: 0.989; 4: 0.993; 5: 1.01

====

- Tested on: ATP;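 also: ATP exposure 15 min at 22 °C before imaging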
- test.protocol: switch fluorescence ratio, 500 uM ATP over buffer (Cy3 cluster intensity, sum of 5 cycles each) (fold (ratio)); higher = stronger signal-on switching upon ATP binding; sequences stand for … in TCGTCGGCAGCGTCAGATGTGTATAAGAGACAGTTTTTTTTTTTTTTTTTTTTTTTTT…TC
- condition.summary: aptamer strand: ATP DNA aptamer (quencher-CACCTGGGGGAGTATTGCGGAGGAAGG + anchor), 100 nM annealed; ATP concentration: 500 uM
endpoint.name: switch fluorescence ratio
Answers are plain numbers.

// known answers, use as guide
sequence | switch fluorescence ratio
TATTGTTAAA | 0.987
ACTCTGGCGT | 1.08
TGTCCCAAGC | 1.18
TCGAGAATGT | 0.984
GATTGACGTG | 0.957

Below are 3 sequences. Give each one its switch fluorescence ratio.
1. TGAGGGTTGG
2. ATCTCAGTGT
3. ATGTGTTACA

result:
1: 1.01; 2: 0.971; 3: 1.01

Below are 2 sequences. Give each one its switch fluorescence ratio.
1. TGTGATTTTC
2. GTGGCATGTT

result:
1. 1.01
2. 0.979

Below are 3 sequences. Give each one its switch fluorescence ratio.
1. TGATTGAGGG
2. CGTACGGTCT
3. GACGCTCATG

result:
1. 0.957
2. 1.05
3. 1.04

====

- Test system: ATP;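 also: ATP exposure 15 min at 22 °C before imaging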
- test.protocol: switch fluorescence ratio, 500 uM ATP over buffer (Cy3 cluster intensity, sum of 5 cycles each) (fold (ratio)); higher = stronger signal-on switching upon ATP binding; sequences stand for … in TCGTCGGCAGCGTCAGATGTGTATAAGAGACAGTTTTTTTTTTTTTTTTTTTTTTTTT…TC
- condition.summary: aptamer strand: ATP DNA aptamer (quencher-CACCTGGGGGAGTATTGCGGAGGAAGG + anchor), 100 nM annealed; ATP concentration: 500 uM
endpoint.name: switch fluorescence ratio

// known answers, use as guide
sequence | switch fluorescence ratio
GATTAATCTG | 0.962
CAAATGGTGG | 1.02
AGTAAGATGT | 0.976
GTATACATTG | 1.02
TTTCATGGCT | 1.01
AATATGTATC | 1
GGGGGGGGT | 1
TGACTATGAT | 0.998
ACCATCAGCG | 1.04
ACGGGGTTGC | 1.01

Below are 2 sequences. Give each one its switch fluorescence ratio.
1. AATATATTGG
2. ATGCAGGAGT

result:
1. 1.03
2. 0.986

Below are 6 sequences. Give each one its switch fluorescence ratio.
1. TCGTGGGAAA
2. TGAGATTTTT
3. GTGTTAGTCC
4. AAAGGAGGTA
5. GATGCGACCA
6. TTGATTGTTT

result:
2.11
0.975
1.05
1
1.04
0.987

Below are 3 sequences. Give each one its switch fluorescence ratio.
1. TGCGTCCAAG
2. CGCAGGATGG
3. TAAGGGTTGG

result:
1: 1.02; 2: 1.05; 3: 0.978

====

- Tested on: ATP;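 also: ATP exposure 15 min at 22 °C before imaging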
- test.protocol: switch fluorescence ratio, 500 uM ATP over buffer (Cy3 cluster intensity, sum of 5 cycles each) (fold (ratio)); higher = stronger signal-on switching upon ATP binding; sequences stand for … in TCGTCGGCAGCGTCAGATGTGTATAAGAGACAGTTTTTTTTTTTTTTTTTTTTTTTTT…TC
- condition.summary: aptamer strand: ATP DNA aptamer (quencher-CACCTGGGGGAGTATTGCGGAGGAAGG + anchor), 100 nM annealed; ATP concentration: 500 uM
Kindly supply the reported switch fluorescence ratio values for the records listed here.
One number for each entry.

sequence | target.of.assay | endpoint.name | recorded.result
AGGGGGGTGA | ATP | switch fluorescence ratio | 1.02
TAGATTTTTT | ATP | switch fluorescence ratio | 1.02
ACCTAGTTTT | ATP | switch fluorescence ratio | 1.01
GGGCAGTGGG | ATP | switch fluorescence ratio | 1.05
CAGGATGTGC | ATP | switch fluorescence ratio | 0.992
GCTCGTAGTG | ATP | switch fluorescence ratio | 1
CGGGGAGATC | ATP | switch fluorescence ratio | 1.03
TGTGGGCAAT | ATP | switch fluorescence ratio | 1.56

Below are 3 sequences. Give each one its switch fluorescence ratio.
1. TTGATTCTGA
2. TGTGGGGGCA
3. TTTGTTGGCA

result:
[0.992, 0.995, 0.986]

Below are 3 sequences. Give each one its switch fluorescence ratio.
1. TAGGTTTAGT
2. GTGATTAATC
3. CGCGGGTATG

result:
[0.984, 1.01, 1.05]

Below are 3 sequences. Give each one its switch fluorescence ratio.
1. ATTGACGTAT
2. TAGCAGGCTA
3. ATCGAAAAAC

result:
1: 1.07; 2: 1; 3: 1.01

Below are 7 sequences. Give each one its switch fluorescence ratio.
1. GAGTAAGTGC
2. TAAGAGGGTT
3. CGTCAATTAT
4. GGGGTATATT
5. ACGTCGGAG
6. AAATCAGATA
7. TTAATTTCTA

result:
1: 0.972; 2: 1; 3: 1.14; 4: 0.994; 5: 0.995; 6: 0.987; 7: 0.99

Below are 4 sequences. Give each one its switch fluorescence ratio.
1. CTATAGGAGA
2. AAATAATTTC
3. CTGAGGGGT
4. TCGAAGGATA

result:
1.01
1
1.05
0.992

Below are 3 sequences. Give each one its switch fluorescence ratio.
1. ATTAGTGATA
2. AGTTTCTAGT
3. CGAGGGACCC

result:
0.976
0.97
1.01

Below are 7 sequences. Give each one its switch fluorescence ratio.
1. AATCTGTTAT
2. GTGAGGGGTT
3. TGGGATAGGC
4. AGCAGGAGGG
5. CAGGCGGCG
6. TTTCGTTCAT
7. GCGATGGATA

result:
1. 0.992
2. 0.971
3. 0.991
4. 1.02
5. 0.991
6. 1.03
7. 0.96

Below are 8 sequences. Give each one its switch fluorescence ratio.
1. CGCCCGGAAT
2. TATGATGTGC
3. TGGTTGGCGT
4. TAATTAACAT
5. GATGATAAAA
6. ATATGAGGGA
7. GCGATTGAGG
8. TTTATAATCT

result:
1: 1.97; 2: 0.969; 3: 1.04; 4: 0.988; 5: 0.989; 6: 1.01; 7: 0.989; 8: 1.05
